Provide the reported pIC50 of each item.
Test system: MCF7
TEST_SUMMARY: Cytotoxicity against human MCF7 cells after 48 hrs by MTT assay
Type: functional, cell-based
STUDY_CONDITIONS: MCF7, 48 h
Answers are plain numbers, as −log10 of the molar value.

Consider the following illustrative entries.
MOLECULE	READING
COc1cc(-c2nc(/C=C/C(=O)c3ccc(N)cc3)cc3c2[nH]c2ccccc23)cc(OC)c1OC	4.84
CNC1=CC(=O)c2c(O)c3c(c(O)c2C1=O)C[C@](C)(O)[C@H](O)[C@H]3O	5.45
CCCNC1=CC(=O)c2c(O)c3c(c(O)c2C1=O)C[C@](C)(O)[C@H](O)[C@H]3O	4.85

Count: 3. Required value per item: pIC50.
1. O=C1C(=O)c2cccnc2-c2ncccc21
2. COC(=O)c1cccc2oc3cc(CCO)cc(O)c3c(=O)c12
3. C=C[C@@]1(C)C=C2[C@@H](O[C@@H]3O[C@H](C)[C@H](O)[C@H](O)[C@H]3O)C[C@@H]3C(C)(C)[C@H](O[C@@H]4O[C@@H](C)[C@H](O)[C@@H](O)[C@H]4O[C@H]4O[C@H](C)[C@H](O)[C@H](O)[C@H]4O)CC[C@@]3(C)[C@@H]2CC1

Out:
1. 6.24
2. 5.34
3. 5.33

Batch: pIC50 for all items listed.
1. CC(CO)c1cc(O)c2c(c1)CC[C@H]1C(C)(C)CCC[C@]1(O)C2 (some centres undefined)
2. Nc1ccc(C(=O)/C=C/c2cc3c([nH]c4ccccc43)c(-c3ccc(F)c(F)c3)n2)cc1
3. COC(=O)c1ccc2c(=O)c3c(O)cc(CCO)cc3oc2c1O
4. C=C[C@@]1(C)C=C2[C@@H](O[C@@H]3O[C@H](C)[C@H](O)[C@H](O)[C@H]3O)C[C@@H]3C(C)(C)[C@H](O[C@@H]4O[C@@H](C)[C@H](O)[C@@H](O)[C@H]4O)CC[C@@]3(C)[C@@H]2CC1

Out:
[4.97, 4.98, 5.57, 4.99]

Dear colleague, could you send me pIC50 for each of the items below? Thanks.
1. COc1ccc2oc3ccccc3c(=O)c2c1O
2. CCCCNC1=CC(=O)c2c(O)c3c(c(O)c2C1=O)C[C@](C)(O)[C@H](O)[C@H]3O
3. COc1ccc(CNC2=CC(=O)c3c(O)c4c(c(O)c3C2=O)C[C@](C)(O)[C@H](O)[C@H]4O)cc1

Out:
1: 4.78; 2: 5.97; 3: 5.04

Each molecule below has a recorded value; state its pIC50.
1. CC(CO)c1cc2c(c(O)c1O)C[C@@]1(O)CCCC(C)(C)[C@@H]1CC2 (some centres undefined)
2. CCCCCCNC1=CC(=O)c2c(O)c3c(c(O)c2C1=O)C[C@](C)(O)[C@H](O)[C@H]3O
3. COc1cc(C(=O)/C=C/c2cc3c([nH]c4ccccc43)c(-c3ccc(F)c(F)c3)n2)cc(OC)c1OC
4. COc1cc(O)c(C(CO)C(O)CO)c2oc3cccc(O)c3c(=O)c12 (centres undefined)
5. C[C@]1(O)Cc2c(O)c3c(c(O)c2[C@H](O)[C@H]1O)C(=O)C(SCCO)=C(SCCO)C3=O
6. CCCCSC1=C(SCCCC)C(=O)c2c(O)c3c(c(O)c2C1=O)C[C@](C)(O)[C@H](O)[C@H]3O

Out:
[4.80, 5.31, 5.06, 5.01, 4.84, 5.61]

---

System: HeLa
TEST_SUMMARY: Cytotoxicity against human HeLa cells after 48 hrs by MTT assay
Type: functional, cell-based
pIC50: −log10 of the molar value.
Would you mind labelling by pIC50? At or over 5 is class 1, under is class 0.

COMPOUND	GROUP_LABEL
CC(C)c1ccc2c(c1)CC[C@H]1[C@](C)(C(=O)NC(=S)N[C@@H](Cc3ccccc3)C(=O)Nc3ccc(Cl)cc3)CCC[C@]21C	class 0

In: Quick check: does CC(=O)N1N=C(c2ccco2)CC1c1cc2c([nH]c3ccccc32)c(-c2ccc(F)c(F)c2)n1 (stereo not drawn) have pIC50 greater than or equal to 5?
Out: class 1

In: Evaluate CC(C)c1ccc2c(c1)CC[C@H]1[C@](C)(C(=O)NC(=S)N[C@@H](Cc3ccccc3)C(=O)Nc3ccccc3F)CCC[C@]21C : pIC50 at minimum 5?
Out: class 0

In: Does pIC50 meet or surpass 5 for COc1cc(-c2nc(/C=C/C(=O)c3cccs3)cc3c2[nH]c2ccccc23)cc(OC)c1OC ?
Out: class 1

In: Does the reported pIC50 for CC(C)c1ccc2c(c1)CC[C@H]1[C@](C)(C(=O)NC(=S)N[C@@H](C)C(=O)Nc3ccc(Br)cc3)CCC[C@]21C fall at or above the 5 mark?
Out: class 0

---

Tested on: HepG2
TEST_SUMMARY: Cytotoxicity against human HepG2 cells after 48 hrs by MTT assay
Type: functional, cell-based
STUDY_CONDITIONS: HepG2, 48 h
Please note: IC50 exactly at 10 µM is no (0). Only values below 10 µM get yes (1).

Recorded results for 4 compounds are shown here.
COMPOUND	GROUP_LABEL
CCOP(=O)(OCC)C(C)(CCc1ccccc1)NC(=O)c1cc(O)c2c(c1)C(=O)c1cccc(O)c1C2=O (stereo not given)	yes (1)
CC(C)=CCC/C(C)=C/COc1cc(O)c2c(c1)C(=O)c1cc(C)cc(O)c1C2=O	no (0)
CCN(CC)CCOc1cc(O)c2c(c1)C(=O)c1cc(C)cc(O)c1C2=O	yes (1)
CCn1c2ccccc2c2cc(C3=NCCc4c3[nH]c3ccccc43)ccc21	yes (1)

In: IC50 strictly < 10 µM for this compound? C#CCNC1=CC(=O)c2c(O)c3c(c(O)c2C1=O)C[C@](C)(O)[C@H](O)C3
Out: no (0)

In: Bench note: check whether O=c1c2ccc(O)cc2oc2cccc(O)c12 shows IC50 below 10 µM
Out: no (0)

In: Please state whether IC50 is below 10 µM for Cc1ccc(C2C3=C(CC(C)(C)CC3=O)N(c3ccc(Cl)cc3)C3=C2C(=O)CC(C)(C)C3)cc1
Out: yes (1)

In: Identify whether the compound Cc1cc(O)c2c(c1)C(=O)c1cc(O)c(CN3CCN(c4ccc(F)cc4)CC3)c(O)c1C2=O records IC50 below 10 µM.
Out: no (0)

In: Criterion: IC50 strictly below 10 µM. Is it met by CC(C)=CCc1c(O)cc2oc3cccc(O)c3c(=O)c2c1O ?
Out: yes (1)

In: Lab log: compare recorded IC50 with 10 µM; is it strictly lower for CCSC1=C(SCC)C(=O)c2c(O)c3c(c(O)c2C1=O)C[C@@H](O)[C@@](C)(O)C3 ?
Out: no (0)

In: Confirm or reject: IC50 of CCCCCCOc1cccc2c1C(=O)c1c(OCCCCCC)cc(Cn3cc(C)c(=O)[nH]c3=O)cc1C2=O lies strictly below 10 µM
Out: yes (1)

In: Lab log: compare recorded IC50 with 10 µM; is it strictly lower for CCOP(=O)(OCC)C(C)(NC(=O)c1cc(O)c2c(c1)C(=O)c1cccc(O)c1C2=O)c1ccccc1 (stereo not given) ?
Out: no (0)

In: Report whether reported IC50 is lower than 10 µM (strictly) for CC(C)=CCc1c(O)c(CC=C(C)C)c2oc3cc(O)ccc3c(=O)c2c1O
Out: no (0)

In: Hello, is IC50 of the following compound strictly smaller than 10 µM? O=c1c2cc(O)ccc2oc2cc(O)cc(O)c12
Out: no (0)

In: Is IC50 strictly under 10 µM for the entry C[C@]1(O)Cc2c(O)c3c(c(O)c2C[C@H]1O)C(=O)C=C(N1CCC(c2ccccc2)CC1)C3=O ?
Out: no (0)

In: Lab note: confirm whether the reported IC50 for this compound is below 10 µM, equality not counting. compound: O=C(NCCN1CCCCC1)c1cc(O)c2c(c1)C(=O)c1cc(O)cc(O)c1C2=O
Out: no (0)

In: Here's an entry: CCOP(=O)(OCC)C(C)(NC(=O)c1cc(O)c2c(c1)C(=O)c1cccc(O)c1C2=O)c1ccc(C)cc1 (stereo not given) . Is its IC50 below 10 µM?
Out: no (0)

In: Answer whether the compound CN(C)CCNC1=CC(=O)c2c(O)c3c(c(O)c2C1=O)C[C@](C)(O)[C@H](O)C3 has IC50 strictly less than 10 µM
Out: yes (1)

---

Test system: BGC-823
TEST_SUMMARY: Cytotoxicity against human BGC823 cells after 48 hrs by MTT assay
Format: functional, cell-based
STUDY_CONDITIONS: BGC-823, 48 h
Can you tell me pIC50 for the items I'm about to list?
One number for each entry, as −log10 of the molar value.

Hello, I would appreciate it if you could give pIC50 for each entry below.
1. O=c1c2ccc(O)c(O)c2oc2cccc(O)c12
2. CC(C)=CCc1c(O)cc2oc3cc(O)ccc3c(=O)c2c1O
3. O=c1c2ccc(O)cc2oc2cc(O)ccc12

Out:
1: 5.00; 2: 4.92; 3: 4.89

Every entry's value here was drawn from ChEMBL document CHEMBL4316584.
